The origin of these recorded values is ChEMBL document CHEMBL1681635.

IC50 reference
target: C-X-C chemokine receptor type 3 (Homo sapiens, UniProt P49682); experiment: Antagonist activity at human CXCR3
Sequence (P49682 whole entry): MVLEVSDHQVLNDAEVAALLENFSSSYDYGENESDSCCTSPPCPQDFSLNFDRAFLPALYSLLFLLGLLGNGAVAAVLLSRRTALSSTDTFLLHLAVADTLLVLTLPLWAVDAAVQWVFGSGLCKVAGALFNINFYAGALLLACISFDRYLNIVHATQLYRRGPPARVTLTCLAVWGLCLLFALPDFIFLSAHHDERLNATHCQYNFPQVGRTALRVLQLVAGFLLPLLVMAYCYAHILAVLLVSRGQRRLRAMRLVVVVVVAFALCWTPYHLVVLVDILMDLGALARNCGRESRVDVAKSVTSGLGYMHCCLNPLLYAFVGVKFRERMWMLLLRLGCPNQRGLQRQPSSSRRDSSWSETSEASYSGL
measurement_label: IC50 (µM)

| molecule | measured_value |
| --- | --- |
| CCNC(=O)c1cnc(N2CCN(C3CCN(Cc4ccc(Cl)cc4F)CC3)C(C3CC3)C2)c(Cl)c1 (stereo not drawn) | 0.032 |
| COC(=O)c1cnc(N2CCN(C3CCN(Cc4ccc(Cl)cc4)CC3)[C@@H](C)C2)c(Cl)c1 | 0.52 |
| CNC(=O)c1cnc(N2CCN(C3CCN(Cc4ccc(Cl)cc4)CC3C)CC2)c(Cl)c1 (stereo not drawn) | 0.064 |
| CC(=O)Nc1cnc(N2CCN(C3CCN(Cc4ccc(Cl)cc4)CC3)[C@@H](C)C2)c(Cl)c1 | 0.008 |
| CNC(=O)c1cnc(N2CCN(C3CCN(Cc4ccco4)CC3)[C@@H](C)C2)c(Cl)c1 | 8.1 |
| C[C@H]1CN(c2ncc(NC(=O)C3CC3)cc2Cl)CCN1C1CCN(Cc2ccc(Cl)cc2)CC1 | 0.02 |
| C[C@H]1CN(C2CCN(Cc3ccc(Cl)cc3)CC2)CCN1c1ncc(C(=O)NCc2ccc(Cl)c(Cl)c2)cc1Cl | 0.039 |
| CNC(=O)c1cnc(N2CCN(C3CCN(Cc4ccc(C(F)(F)F)cc4)CC3)[C@@H](C)C2)c(Cl)c1 | 0.063 |

---

test: Clearance in Sprague-Dawley rat at 5 mg/kg, po; assay type: ADME, organism-based; parameters: dose 5 mg/kg, route oral; conditions: in vivo

| smiles | unit_text | CL/F |
| --- | --- | --- |
| C[C@H]1CN(c2ncc(C(=O)NCc3ccc(F)c(F)c3)cc2Cl)CCN1C1CCN(Cc2ccc(Cl)cc2)CC1 | mL/min/kg | 32.6 |

---

molecular target: C-X-C chemokine receptor type 3 (Homo sapiens); assay: Antagonist activity at human CXCR3
Lab note: cut-off is 90 nM. Strictly less in IC50 is Condition met. Exactly 90 nM or more is Condition not met.

| compound | label_class |
| --- | --- |
| CNC(=O)c1cnc(N2CCN(C3CCN(Cc4ccc(Cl)cc4)CC3)[C@@H](c3ccccc3)C2)c(Cl)c1 | Condition not met |
| CNC(=O)c1cnc(N2CCN(C3CCN(Cc4ccc(Cl)cc4)CC3)C(COC)C2)c(Cl)c1 (centres undefined) | Condition not met |
| CNC(=O)c1cnc(N2CCN(C3CCN(Cc4ccc[nH]4)CC3)[C@@H](C)C2)c(Cl)c1 | Condition not met |
| CNC(=O)c1cnc(N2CCN(C3CCN(Cc4ccc(C)cc4)CC3)[C@@H](C)C2)c(Cl)c1 | Condition met |
| C[C@@H]1CN(C2CCN(Cc3ccc(Cl)cc3)CC2)CCN1c1ncc(C(=O)NCc2ccc(Cl)c(Cl)c2)cc1Cl | Condition not met |
| CNC(=O)c1cnc(N2CCN(C3CCN(Cc4ccc(Cl)cc4Cl)CC3)[C@@H](C)C2)c(Cl)c1 | Condition met |
| C[C@H]1CN(c2ncc(C(=O)Nc3ccc(F)c(F)c3)cc2Cl)CCN1C1CCN(Cc2ccc(Cl)cc2)CC1 | Condition met |
| CC1(N2CCN(c3ncc(C(=O)NCc4ccc(Cl)c(Cl)c4)cc3Cl)CC2)CCN(Cc2ccc(Cl)cc2)CC1 | Condition met |
| CNC(=O)c1cnc(N2CCN(C3CCN(Cc4ccc(Cl)cc4)C(=O)C3)[C@@H](C)C2)c(Cl)c1 (some centres undefined) | Condition not met |
| CNC(=O)c1cnc(N2CCN(C3CCN(Cc4ccc(Cl)cc4)CC3)[C@@H](C)C2)c(Cl)c1 | Condition met |
| CCNC(=O)c1cnc(N2CCN(C3CCN(Cc4ccc(Cl)cc4)CC3)[C@@H](CC)C2)c(Cl)c1 | Condition met |
| CNC(=O)c1cnc(N2CCN(C3CCN(Cc4ccc(Cl)cc4)CC3)CC2)c(Cl)c1 | Condition not met |
| CNC(=O)c1cnc(N2CCC(N3CCN(Cc4ccc(Cl)cc4)CC3)C(C)C2)c(Cl)c1 (centres undefined) | Condition not met |
| CNC(=O)c1cnc(N2CCN(C3CCN(Cc4ccc(Cl)cc4)CC3)C(CO)C2)c(Cl)c1 (centres undefined) | Condition not met |
